- experimental-target: interaction of the RBD of the SARS‐CoV‐2 S protein with the ACE2 receptor (Severe acute respiratory syndrome coronavirus 2)
- Type: binding
- condition-description: 20 µM
Label condition not met if inhibition of the S/ACE2 interaction falls below 20%; label condition met in every other case.

Answered cases to consult:
Hi team, for [Au+3].[Cl-].[Cl-].[Cl-].[Cl-].[H+] [Au‐5, chloroauric acid, reference compound] , is the recorded inhibition of the S/ACE2 interaction at or above 20%?
condition met

Query O=C(O)CC([S-])C(=O)O.[Au+] (centres unmarked) [Au‐2, aurothiomalate, reference compound] next
condition not met

What do you have for `CO[C@H]1O[C@H](CO)[C@@H](O)[C@H](O)[C@H]1NC(=O)C1CCN(C(=S)[S-])CC1.[Au+3].[Br-].[Br-]` ?
condition not met

Below: the item to evaluate.
Determine whether this compound has inhibition of the S/ACE2 interaction no lower than 20%: `CC(C)n1cc(-c2ccccc2)n(C(C)C)[c]1=[Au][Cl]`
condition not met

The values you see were collected from paper PMC8653295.
